Would you kindly list log10 MIC for each of these compounds?
System: Staphylococcus aureus
Assay: Antibacterial activity against Staphylococcus aureus RN4220 harboring aadD and tet(L) gene by CLSI method
Format: functional
Quick note: numbers are log10 of MIC, with µg/mL as the unit.

[
  {
    "compound": "NC[C@@H]1O[C@H](O[C@H]2[C@@H](O)[C@H](O[C@@H]3[C@@H](O)[C@H](N)C[C@H](N)[C@H]3O[C@H]3O[C@H](CN)[C@@H](O)[C@H](O)[C@H]3N)O[C@@H]2CO)[C@H](N)[C@@H](O)[C@@H]1O [FRAMYCETIN]",
    "endpoint.value": 1.81
  },
  {
    "compound": "C=C[C@]1(C)C[C@@H](OC(=O)CSCCN(CC)CC)[C@]2(C)[C@H](C)CC[C@]3(CCC(=O)[C@H]32)[C@@H](C)[C@@H]1O [TIAMULIN]",
    "endpoint.value": -1.22
  },
  {
    "compound": "CCC[C@@H]1C[C@@H](C(=O)N[C@@H]([C@H]2O[C@H](SC)[C@H](O)[C@@H](O)[C@H]2O)[C@@H](C)O)N(C)C1 [LINCOMYCIN]",
    "endpoint.value": 0.00
  },
  {
    "compound": "COc1cc(Cc2cnc(N)nc2N)cc(OC)c1OC [TRIMETHOPRIM]",
    "endpoint.value": -0.30
  },
  {
    "compound": "NC[C@H]1O[C@H](O[C@H]2[C@H](O)[C@@H](O[C@H]3O[C@H](CO)[C@@H](O)[C@H](N)[C@H]3O)[C@H](N)C[C@@H]2N)[C@H](O)[C@@H](O)[C@@H]1O [KANAMYCIN]",
    "endpoint.value": 1.51
  }
]

Could you tell me which log10 MIC is on file for C=C[C@]1(C)C[C@@H](OC(=O)CSC(C)(C)CNC(=O)[C@H](N)C(C)C)[C@]2(C)[C@H](C)CC[C@]3(CCC(=O)[C@H]32)[C@@H](C)[C@@H]1O [VALNEMULIN] ?
-1.52

# credit: ChEMBL document CHEMBL1649544
